IC50 values for the molecules below.
test system: TDO (Homo sapiens)
Sequence (P48775 whole entry): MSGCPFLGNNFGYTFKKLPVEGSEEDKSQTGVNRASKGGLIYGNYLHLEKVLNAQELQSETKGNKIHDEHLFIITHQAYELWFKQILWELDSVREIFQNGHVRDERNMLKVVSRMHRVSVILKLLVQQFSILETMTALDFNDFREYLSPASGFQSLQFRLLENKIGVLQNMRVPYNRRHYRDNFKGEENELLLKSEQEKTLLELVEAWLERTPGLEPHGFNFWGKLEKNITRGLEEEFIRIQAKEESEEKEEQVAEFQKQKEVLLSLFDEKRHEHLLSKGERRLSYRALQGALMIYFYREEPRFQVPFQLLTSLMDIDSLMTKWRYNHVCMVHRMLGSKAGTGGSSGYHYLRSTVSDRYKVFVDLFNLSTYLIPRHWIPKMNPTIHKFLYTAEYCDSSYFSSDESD
procedure summary: A172 kynurenine cell-based assay
Design: This assay utilised cancer cells which expressed either TDO or IDO; endogenous in cells; host or cells: A172 (human glioblastoma)
conditions used: A172 human glioblastoma cells, 48 hours, 500 μM L-tryptophan; read-out: A172 Kynurenine cell based assay pIC50 (converted)
Method: Exemplary compounds of the invention were prepared, and tested to determine their effect as TDO and/or IDO inhibitors. […] This coupled enzyme system allowed conversion of N-formylkynurenine produced by TDO or IDO activity to kynurenine which was then quantified by fluorescence following addition of Erhlich's Reagent The protocols for these are set out below. […]
assay metric: IC50

{"molecule": "CC(=O)N1CCC(c2cc(C(C)C)cc3[nH]ncc23)CC1", "value": "3.24 to 31.6 µM"}
{"molecule": "CN(CCNc1cccc2[nH]ncc12)S(C)(=O)=O", "value": "32.4 to 100 µM"}
{"molecule": "CC(=O)N1CCN(c2cc(Cl)cc3c(N)noc23)CC1(C)C", "value": "3.24 to 31.6 µM"}
{"molecule": "Cc1nc2c(o1)CN(c1cc(Cl)cc3[nH]ncc13)CC2(C)C", "value": "< 3.16 µM"}
{"molecule": "Cc1cc(N2CCN(S(C)(=O)=O)CC2)c2cn[nH]c2c1", "value": "< 3.16 µM"}
{"molecule": "CC(C)C(=O)N1CCN(c2cc(Cl)cc3[nH]ncc23)CC1", "value": "< 3.16 µM"}
{"molecule": "Cn1cc(-c2cc(Cl)cc3[nH]ncc23)cn1", "value": "< 3.16 µM"}
{"molecule": "CC(=O)Nc1ccc2c(c1)CCN(c1cc(Cl)cc3[nH]ncc13)C2", "value": "< 3.16 µM"}
{"molecule": "CC1CN(c2cccc3[nH]ncc23)CCN1S(C)(=O)=O (stereo not drawn)", "value": "3.24 to 31.6 µM"}
{"molecule": "CS(=O)(=O)N1CCC(c2ccc(Cl)c3[nH]ncc23)CC1", "value": "32.4 to 100 µM"}
{"molecule": "CS(=O)(=O)N1CC2CCC1CN2c1cc(Cl)cc2[nH]ncc12 (stereo not drawn)", "value": "< 3.16 µM"}
{"molecule": "OC(c1cc(Cl)cc2[nH]ncc12)C1CCCCC1 (stereo not drawn)", "value": "< 3.16 µM"}
{"molecule": "O=S(=O)(c1ccccc1)N1CCN(c2cccc3[nH]ncc23)CC1", "value": "3.24 to 31.6 µM"}
{"molecule": "O=C1CN(c2cc(Cl)cc3[nH]ncc23)CCN1", "value": "3.24 to 31.6 µM"}
{"molecule": "CN(CC1CCCN(c2cc(Cl)cc3[nH]ncc23)C1)S(C)(=O)=O (stereo not drawn)", "value": "3.24 to 31.6 µM"}
{"molecule": "CCc1cc(N2CCN(S(C)(=O)=O)C(C)(C)C2)c2cn[nH]c2c1", "value": "< 3.16 µM"}
{"molecule": "Cn1cc2c(n1)CN(c1cc(Cl)cc3[nH]ncc13)CC2", "value": "3.24 to 31.6 µM"}
{"molecule": "CC1(C)CN(c2cc(Cl)cc3[nH]ncc23)CCN1S(C)(=O)=O", "value": "< 3.16 µM"}
{"molecule": "CC(=O)N(C)C1CCN(c2cc(Cl)cc3[nH]ncc23)CC1(C)C (stereo not drawn)", "value": "< 3.16 µM"}
{"molecule": "CS(=O)(=O)N1CCN(c2cc(-c3ncco3)cc3[nH]ncc23)CC1", "value": "> 100 µM"}
{"molecule": "CS(=O)(=O)N1CCN(C2CCN(c3cc(Cl)cc4[nH]ncc34)CC2)CC1", "value": "< 3.16 µM"}
